# Tested on: CRL-7250
# PROCEDURE_SUMMARY: Cytotoxic Profiling of Annotated Libraries Using Quantitative High-Throughput Screening (AID 1296008); note: nearly all actives have a fitted effect of over 60% in size
# CONDITION_NOTES: Five cell lines viability, CellTiter-Glo ATP luminescence, 48-72 h
Records with an inconclusive call do not appear. Activity calls are given as the source filed them. Calls come from the whole dose curve; as a rule, active = well fitted inhibition curve with a large enough effect; inconclusive = small, poorly fitted or top-dose-only effect; inactive = flat fitted curve, though single readings scatter.
Outcome codes: YES (active), NO (inactive)

MOLECULE: CN[C@H]1CC[C@@H](c2ccc(Cl)c(Cl)c2)c2ccccc21
ASSAY_TARGET: CRL-7250
ASSIGNED_LABEL: YES
//
MOLECULE: OC1C=C2C3CN(Cc4cc5c(cc43)OCO5)C2CC1O (configuration not stated)
ASSAY_TARGET: CRL-7250
ASSIGNED_LABEL: YES
//
MOLECULE: COc1cc(N2CCC(N3CCN(C)CC3)CC2)ccc1Nc1ncc(Cl)c(Nc2ccccc2P(C)(C)=O)n1
ASSAY_TARGET: CRL-7250
ASSIGNED_LABEL: YES
//
MOLECULE: O=c1[nH]c2ccccc2n1CCN1CCN(c2cccc(C(F)(F)F)c2)CC1
ASSAY_TARGET: CRL-7250
ASSIGNED_LABEL: NO
//
MOLECULE: Cn1nc(C(C)(C)C)cc1C(=O)N[C@@H](Cc1cccc(Cl)c1)C(=O)NCC#N
ASSAY_TARGET: CRL-7250
ASSIGNED_LABEL: NO
//
MOLECULE: CN1CCN(C2=Nc3ccccc3Nc3ccc(OS(=O)(=O)C(F)(F)F)cc32)CC1
ASSAY_TARGET: CRL-7250
ASSIGNED_LABEL: NO
//
MOLECULE: Cc1cc(C(=O)Nc2cc(Nc3ccc4c(/C=C/c5ccccn5)n[nH]c4c3)ccc2F)n(C)n1
ASSAY_TARGET: CRL-7250
ASSIGNED_LABEL: YES
//
MOLECULE: COC1CC/C=C(\C)C(=O)Nc2cc(O)cc(c2)CC(C)CC(OC)C(O)C(C)/C=C(\C)C1OC(N)=O (configuration not stated)
ASSAY_TARGET: CRL-7250
ASSIGNED_LABEL: YES
//
MOLECULE: C=C1C(=O)OC2/C=C(\COC(C)=O)CC/C=C(\C=O)CC(OC(=O)CC(C)C)C12 (configuration not stated)
ASSAY_TARGET: CRL-7250
ASSIGNED_LABEL: YES
//
MOLECULE: COc1ccc(S(=O)(=O)Nc2c(C)cc(C)cc2C)cc1
ASSAY_TARGET: CRL-7250
ASSIGNED_LABEL: NO
//
MOLECULE: COc1ccc(NC(=O)C2C[C@H](C)CC[C@H]2C(C)C)cc1 (some centres not stated)
ASSAY_TARGET: CRL-7250
ASSIGNED_LABEL: NO
//
MOLECULE: CNS(=O)(=O)c1ccccc1Nc1nc(Nc2ccc(N3CCN(C)CC3)cc2OC)ncc1Br
ASSAY_TARGET: CRL-7250
ASSIGNED_LABEL: YES
//
MOLECULE: C1=C/COCc2cc(ccc2OCCN2CCCC2)Nc2nccc(n2)-c2cccc(c2)COC/1
ASSAY_TARGET: CRL-7250
ASSIGNED_LABEL: YES
//
MOLECULE: CN(C)S(=O)(=O)c1ccc(NC(=S)N2CCC(C(O)(c3ccccc3)c3ccccc3)CC2)cc1
ASSAY_TARGET: CRL-7250
ASSIGNED_LABEL: NO
//
MOLECULE: CN1CC[C@@H](c2c(O)cc(O)c3c(=O)cc(-c4ccc(C(F)(F)F)cc4Cl)oc23)[C@@H]1CO
ASSAY_TARGET: CRL-7250
ASSIGNED_LABEL: NO
//
MOLECULE: O=C1COc2nccc(-c3ccccc3F)c2CN1Cc1cc(C(F)(F)F)cc(C(F)(F)F)c1
ASSAY_TARGET: CRL-7250
ASSIGNED_LABEL: NO
//
MOLECULE: CN1CCN(Cc2ccc(NC(=O)Cc3ccc(Oc4cc(NC(=O)C5CC5)ncn4)cc3)cc2C(F)(F)F)CC1
ASSAY_TARGET: CRL-7250
ASSIGNED_LABEL: YES
//
MOLECULE: Fc1ccc(-c2nc(C3CCNCC3)sc2-c2ccnc(NC3CC3)n2)cc1
ASSAY_TARGET: CRL-7250
ASSIGNED_LABEL: NO
//
MOLECULE: NC(=O)CCCSc1nc(N)nc(-c2c(Cl)cc3c4c(cccc24)COC3)n1
ASSAY_TARGET: CRL-7250
ASSIGNED_LABEL: YES
//
MOLECULE: Nc1ncnc2c1nc(Cl)n2C1OC2COP(=O)(O)OC2C1O (configuration not stated)
ASSAY_TARGET: CRL-7250
ASSIGNED_LABEL: YES
//
MOLECULE: COC(=O)Nc1cc(Nc2cc(NC3CC3)c3ncc(C#N)n3n2)c(Cl)c(N2CCN(C)CC2)c1
ASSAY_TARGET: CRL-7250
ASSIGNED_LABEL: YES
//
MOLECULE: C=C(C)C(=O)OC1CC2(C)OC(=CC2=O)C(=C)CC2OC(=O)C(=C)C12 (configuration not stated)
ASSAY_TARGET: CRL-7250
ASSIGNED_LABEL: YES
//
MOLECULE: CC1(C)CC[C@]2(C(=O)O)CC[C@]3(C)C(=CCC4[C@@]5(C)C[C@@H](O)[C@H](O)C(CO)(CO)C5CC[C@]43C)C2[C@@H]1O (some centres not stated)
ASSAY_TARGET: CRL-7250
ASSIGNED_LABEL: YES
//
MOLECULE: Cc1[nH]c2ccccc2c1CCNCc1ccc(/C=C/C(=O)NO)cc1
ASSAY_TARGET: CRL-7250
ASSIGNED_LABEL: YES
//
MOLECULE: C=C1CC2OC(=O)C(=C)C2C(OC(=O)/C(C)=C\C)CC2(C)OC1=CC2=O (configuration not stated)
ASSAY_TARGET: CRL-7250
ASSIGNED_LABEL: YES
//
MOLECULE: Cc1[nH]c2ccc(F)cc2c1-c1nc2c3cccnc3c3ncccc3c2[nH]1
ASSAY_TARGET: CRL-7250
ASSIGNED_LABEL: YES
//
MOLECULE: COc1cc2ncnc(Nc3ccc(F)c(Cl)c3)c2cc1O
ASSAY_TARGET: CRL-7250
ASSIGNED_LABEL: NO
//
MOLECULE: COc1ccncc1C(=O)NC(=O)Nc1ccc(-c2ccccc2)c(C(F)(F)F)c1
ASSAY_TARGET: CRL-7250
ASSIGNED_LABEL: NO
//
MOLECULE: CCCC1(CCC)CCC2(CCN(CCCN(CC)CC)C2)CC1
ASSAY_TARGET: CRL-7250
ASSIGNED_LABEL: YES
//
MOLECULE: CN1CCC(c2cn(C)c3ccc(OS(=O)(=O)c4c(F)cccc4F)cc23)CC1
ASSAY_TARGET: CRL-7250
ASSIGNED_LABEL: NO
//
MOLECULE: COc1ccc(-c2cnc3c(-c4cccc5ncccc45)cnn3c2)cc1
ASSAY_TARGET: CRL-7250
ASSIGNED_LABEL: NO
//
MOLECULE: COc1cc(C(C)=O)c(OC)c2c1OC(C)(C)C=C2
ASSAY_TARGET: CRL-7250
ASSIGNED_LABEL: NO
//
MOLECULE: O=C(Nc1ccccc1Cl)c1cnc2ccc(C3CCNCC3)cn12
ASSAY_TARGET: CRL-7250
ASSIGNED_LABEL: YES
//
MOLECULE: COC(=O)C1=CO[C@@H](O[C@@H]2O[C@H](CO)[C@@H](O)[C@H](O)[C@H]2O)[C@H]2[C@@H]1C=C[C@]21C=C([C@H](C)OC(=O)/C=C/c2ccc(O)cc2)C(=O)O1
ASSAY_TARGET: CRL-7250
ASSIGNED_LABEL: YES
//
MOLECULE: CCN(Cc1cc(Nc2nc(C)cn3c(-c4cn[nH]c4)cnc23)sn1)C(C)(C)CO
ASSAY_TARGET: CRL-7250
ASSIGNED_LABEL: YES
//
MOLECULE: Clc1ncoc1-c1c[nH]c2ccccc12
ASSAY_TARGET: CRL-7250
ASSIGNED_LABEL: NO
//
MOLECULE: CCc1cccc(CC)c1-n1c(C=C(C)C)c(C(=O)N2CCNCC2)cc(-c2nc(-c3ccc(C(F)(F)F)cc3)cs2)c1=O
ASSAY_TARGET: CRL-7250
ASSIGNED_LABEL: NO
